B1: Gamma-crystallin C, residues 4 to 79; numbered along this chain, P07315 (parent)
chain: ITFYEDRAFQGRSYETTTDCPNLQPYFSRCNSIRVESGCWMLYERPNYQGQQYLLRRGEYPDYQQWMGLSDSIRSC

# Variants of: B1
# measurement_notes: abundance fitness (aPCA) (normalised: wild type 0, dead -1); higher = more abundant; growth selection in yeast, the domain comes from the species named
# condition_label: Homo sapiens
// reported abundance fitness per item
observation_type: abundance fitness

# sequence_code, result_number
rows = [
    ("ITFYEDRAFQGRSYETTTDCPNRQPYFSRCNSIRVESGCWMLYERPNYQGQQYLLRRGEYPDYQQWMGLSDSIRSC [L23R]", -1.01),
    ("ITFYEDRAFQGRSYETTTDCPNLQPYFSRCNSIRVESGCWMLYERPNYQGQQYLLRRGEYPDYQHWMGLSDSIRSC [Q65H]", -0.065),
    ("ITFYEDRAFQGRSYETTTDCPNLQPYFSRCNSIDVESGCWMLYERPNYQGQQYLLRRGEYPDYQQWMGLSDSIRSC [R34D]", -0.382),
    ("ITFYEDRAFQGRSYETTTDCPNLQPYFSRCNSIRVVSGCWMLYERPNYQGQQYLLRRGEYPDYQQWMGLSDSIRSC [E36V]", 0.008),
    ("ITVYEDRAFQGRSYETTTDCPNLQPYFSRCNSIRVESGCWMLYERPNYQGQQYLLRRGEYPDYQQWMGLSDSIRSC [F3V]", -1.08),
    ("ITFYEDRAFQGRSYETTTDCPNLQPYFSRCNSIRVESGCWMLYESPNYQGQQYLLRRGEYPDYQQWMGLSDSIRSC [R45S]", -0.127),
    ("ITFYEDRAFQGRSYETTTDCPNLQPYFSRCNSIRVESMCWMLYERPNYQGQQYLLRRGEYPDYQQWMGLSDSIRSC [G38M]", -0.141),
    ("ITFYEDRAFQGRSYETTTDCPNLQPYFSRCNSIRVESGCWMLYERPNYQGQQYLLRAGEYPDYQQWMGLSDSIRSC [R57A]", 0.046),
    ("ITFYEDRAFQGRSYETTTDCPNLQPYFSRCNSIRVESGCWMLYERPNYQGQQYLLYRGEYPDYQQWMGLSDSIRSC [R56Y]", 0.255),
    ("ITFYEDRAFQGRSYETTTDCPNLQPYFSRCNSIRVMSGCWMLYERPNYQGQQYLLRRGEYPDYQQWMGLSDSIRSC [E36M]", 0.019),
    ("ITFYEDRAFQGRSYETTTDCPNLQPYFSRCNSIRVESGRWMLYERPNYQGQQYLLRRGEYPDYQQWMGLSDSIRSC [C39R]", -0.071),
    ("ITFYEDRAFQGRSYETTTDCPNLQPYFSRCNSILVESGCWMLYERPNYQGQQYLLRRGEYPDYQQWMGLSDSIRSC [R34L]", -0.077),
    ("ITFYEDRAFQGRSYETTTDCPNLQPYFSRCNSIRVESGCWMLYERPNYQGQQYLLRRGEYPDYQQWMGLSTSIRSC [D71T]", -0.059),
    ("ITFYEDRAFQGRSYETTTDCPNLQPYFSRCNSIRVESKCWMLYERPNYQGQQYLLRRGEYPDYQQWMGLSDSIRSC [G38K]", -0.177),
    ("ITFYEDRAFQGRSYETTTDCPNLQPYFSRCNSIRVESCCWMLYERPNYQGQQYLLRRGEYPDYQQWMGLSDSIRSC [G38C]", -0.005),
    ("ITFYEDRAFQGRSYETTTDCPNLQPYFSRCSSIRVESGCWMLYERPNYQGQQYLLRRGEYPDYQQWMGLSDSIRSC [N31S]", -0.019),
    ("ITFYEDRAFQGRSYETTTDCPNLQPYFSRCNSIRVESGCWMLYERPNYQGQQYLLRRGEYPDYQQWMGLQDSIRSC [S70Q]", -0.077),
    ("ITFYEDRAFQGRSYETTTDCPNLQGYFSRCNSIRVESGCWMLYERPNYQGQQYLLRRGEYPDYQQWMGLSDSIRSC [P25G]", 0.032),
    ("ITFYEDRAFQGRSYETTTDCPNLQSYFSRCNSIRVESGCWMLYERPNYQGQQYLLRRGEYPDYQQWMGLSDSIRSC [P25S]", 0.047),
    ("ITFYEDRAFQGRSYETTTDCPNLQPYFSRCNSIRVESGCWMLYERPNYQGQQYLLRRGELPDYQQWMGLSDSIRSC [Y60L]", -0.247),
    ("ITFYEDRAFQGRSYETTTDCPNLQPYFSRCNSIRSESGCWMLYERPNYQGQQYLLRRGEYPDYQQWMGLSDSIRSC [V35S]", -0.589),
    ("ITFYEDRAFQGRSYETTTDCPNLQPYFSRCNSIRVESGCWDLYERPNYQGQQYLLRRGEYPDYQQWMGLSDSIRSC [M41D]", -0.133),
]
